Biological target: T1, PD-1 molecule (refolded, purified and biotinylated PD-1 of Example 2) (UniProt Q15116 33-150, biotinylated with BirA enzyme (site not stated))
T1 construct: also called Programmed Death-1
T1 sequence (Q15116 33-150 limits assumed): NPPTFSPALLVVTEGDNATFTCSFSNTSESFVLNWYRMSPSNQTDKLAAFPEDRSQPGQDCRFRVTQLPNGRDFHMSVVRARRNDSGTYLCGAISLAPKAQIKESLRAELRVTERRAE
Experiment: SPR (BIAcore T200), single-cycle kinetics; biotinylated PD-1 captured via streptavidin, PDL-1 variant in solution
parameter: Kd (µM)
Give just the number in µM; leave the unit off.

input: Look at this binder and give its reported Kd. high affinity PDL-1 molecule L2G10 (ligand) FTVTVPKDLYVVEYGSNMTIECKFPVEKQLDLAALQVHWFMEDKNIYSFVHGEEDLKVQHSSYRQRARLLKDQLSLGNAALQITDVKLQDAGVYRCMISYGGADYKRITVKVNAPYNKINQRILVVDPVTSEHELTCQAEGYPKAEVIWTSSDHQVLSGKTTTTNSKREEKLFNVTSTLRINTTTNEIFYCTFRRLDPEENHTAELVIPEL
output: 4.6

input: Look at this binder and give its reported Kd. high affinity PDL-1 molecule L2B8 (ligand) FTVTVPKDLYVVEYGSNMTIECKFPVEKQLDLAALQVHWFMEDKNIVSFVHGEEDLKVQHSSYRQRARLLKDQLSLGNAALQITDVKLQDAGVYRCMISYGGADYKRITVKVNAPYNKINQRILVVDPVTSEHELTCQAEGYPKAEVIWTSSDHQVLSGKTTTTNSKREEKLFNVTSTLRINTTTNEIFYCTFRRLDPEENHTAELVIPEL
output: 11.7

input: Look at this binder and give its reported Kd. high affinity PDL-1 molecule L3B3b (ligand) FTVTVPKDLYVVEYGSNMTIECKFPVEKQLDLAALQVFWMMEDKNIVSFVHGEEDLKVQHSSYRQRARLLKDQLSLGNAALQITDVKLQDAGVYVCLIAYKGADYKRITVKVNAPYNKINQRILVVDPVTSEHELTCQAEGYPKAEVIWTSSDHQVLSGKTTTTNSKREEKLFNVTSTLRINTTTNEIFYCTFRRLDPEENHTAELVIPEL
output: 0.666
